- assay.target: murine 11β-HSD1 (Mus musculus)
- Construct: The full-length cDNAs of human or murine11β-HSD1 and 11β-HSD2 were isolated from the cDNA libraries; microsomal fraction
- Sequence (P50172 whole entry): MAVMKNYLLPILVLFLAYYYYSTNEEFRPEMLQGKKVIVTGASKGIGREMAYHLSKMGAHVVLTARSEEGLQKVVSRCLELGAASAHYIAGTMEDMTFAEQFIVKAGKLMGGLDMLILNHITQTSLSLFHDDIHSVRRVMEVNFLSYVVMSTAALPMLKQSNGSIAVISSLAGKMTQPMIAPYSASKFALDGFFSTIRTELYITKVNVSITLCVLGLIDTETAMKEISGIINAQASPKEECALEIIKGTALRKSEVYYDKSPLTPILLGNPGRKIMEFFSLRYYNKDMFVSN
- test: scintillation proximity assay (SPA), murine 11β-HSD1
- condition.parameters: SPA; text: intact CHOP cells transfected with murine HSD11B1; read-out: IC50, inhibition of murine 11β-HSD1
pIC50: −log10 of the molar value.

{"molecule.smiles": "CC1(C)OC(=O)C=C[C@]2(C)O[C@@]3(CC4=C5C(=O)O[C@@H](c6ccoc6)[C@]5(C)CC[C@H]4O3)C[C@H]12", "pIC50": 6.22}

###

- assay.target: human 11β-HSD1 (Homo sapiens, UniProt P28845)
- Construct: The full-length cDNAs of human or murine11β-HSD1 and 11β-HSD2 were isolated from the cDNA libraries; microsomal fraction
- Sequence (P28845 whole entry): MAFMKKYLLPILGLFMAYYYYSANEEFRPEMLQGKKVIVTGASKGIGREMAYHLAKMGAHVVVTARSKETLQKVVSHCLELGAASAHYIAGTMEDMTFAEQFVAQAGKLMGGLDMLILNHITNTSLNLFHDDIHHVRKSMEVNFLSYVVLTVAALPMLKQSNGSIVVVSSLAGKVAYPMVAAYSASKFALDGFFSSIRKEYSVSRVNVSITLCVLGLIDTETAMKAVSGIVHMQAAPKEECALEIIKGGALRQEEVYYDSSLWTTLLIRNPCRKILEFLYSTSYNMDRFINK
- test: scintillation proximity assay (SPA), human 11β-HSD1
- condition.parameters: SPA; text: intact cell transfected with human HSD11B1, whole cell assay; read-out: IC50, inhibition of human 11β-HSD1
pIC50: −log10 of the molar value.
reported.metric: pIC50

{"compound": "CC1=CC23C(=O)OC(C)(C)C1CC2(O)CC1=C2C(=O)OC(c4ccoc4)C2(C)CCC13 (stereo not shown)", "reported.metric": "pIC50", "numeric.result": 6.24}
